# studyTarget: T1, recombinant human fibronectin fragment FN7B8 (human, UniProt P02751 1173-1448)
# T1 construct: no separate number is printed for the protein, so the entry may be a nucleic acid
# T1 sequence (P02751 other isoform, or with tags, fused parts or gaps limits assumed): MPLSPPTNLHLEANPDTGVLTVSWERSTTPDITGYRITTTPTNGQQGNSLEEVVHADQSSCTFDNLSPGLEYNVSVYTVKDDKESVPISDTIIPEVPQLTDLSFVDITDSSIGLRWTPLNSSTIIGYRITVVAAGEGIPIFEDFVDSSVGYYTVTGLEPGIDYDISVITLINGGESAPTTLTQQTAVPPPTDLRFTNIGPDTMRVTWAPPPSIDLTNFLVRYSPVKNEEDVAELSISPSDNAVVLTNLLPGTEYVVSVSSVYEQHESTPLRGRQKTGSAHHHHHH
# testMethodNotes: SPR (BIAcore X), FN7B8 amine-coupled (about 500 RU), mutein as analyte
Would you mind telling me the reported kon of each entry?
Give the value, in units of M⁻¹ s⁻¹, as a plain number.

INPUT: Fill in kon for record Lcn2 mutein N7A (designed binder) QDSTSDLIPAPPLSKVPLQQNFQDNQFHGKWYVVGKAGNHDLREDKDPRKMQATIYELKEDKSYNVTNVRFVHKKCNYRIWTFVPGSQPGEFTLGNIKSWPGLTSWLVRVVSTNYNQHAMVFFKRVYQNRELFEITLYGRTKELTNELKENFIRFSKSLGLPENHIVFPVPIDQCIDG
OUTPUT: 4.6e+06

INPUT: Fill in kon for record Lcn2 mutein N7E (designed binder) QDSTSDLIPAPPLSKVPLQQNFQDNQFHGKWYVVGEAGNSLLREDKDPRKMYATIYELKEDKSYNVTSVRFRSKKCHYLIRTFVPGSQPGEFTLGLIKSKPGHTSFLVRVVSTNYNQHAMVFFKTVAQNREYFFITLYGRTKELTSELKENFIRFSKSLGLPENHIVFPVPIDQCIDG
OUTPUT: 4.1e+06

INPUT: Fill in kon for record Lcn2 mutein N10D (designed binder, also called NIOD; NI OD) QDSTSDLIPAPPLSKVPLQQNFQDNQFHGKWYVVGAAGNTWLREDKDPYKMQATIYELKEDKSYNVTNVLFMSKKCRYMIHTFVPGSQPGEFTLGSIKSWPGLTSWLVRVVSTNYNQHAMVFFKRVYQNREFFGITLYGRTKELTSELKENFIRFSKSLGLPENHIVFPVPIDQCIDG
OUTPUT: 1.5e+06

INPUT: Fill in kon for record Lcn2 mutein N9B (designed binder) QDSTSDLIPAPPLSKVPLQQNFQDNQFHGKWYVVGRAGNMRLREDKDPAKMVATIYELKEDKSYNVTKVMFQRKKCKYMINTFVPGSQPGEFTLGAIKSPPGPTSTLVRVVSTNYNQHAMVFFKHVFQNREYFHITLYGRTKELTSELKENFIRFSKSLGLPENHIVFPVPIDQCIDG
OUTPUT: 2.1e+06
